target: FXR (Homo sapiens, UniProt Q96RI1); construct: expressed in transfected cells; host or cells: HEK293T; experiment: FXR agonistic activity by GAL4-FXR-LBD reporter gene (Dual-Glo luciferase) detection in HEK293T cells; assay type: cell-based; conditions: Cellular Level Activity EC50(nM) of FXR, HEK293T cells, pGAL4-FXR-LBD/pG5-Luc reporter, 24 h treatment
Sequence (Q96RI1 222-486 limits assumed): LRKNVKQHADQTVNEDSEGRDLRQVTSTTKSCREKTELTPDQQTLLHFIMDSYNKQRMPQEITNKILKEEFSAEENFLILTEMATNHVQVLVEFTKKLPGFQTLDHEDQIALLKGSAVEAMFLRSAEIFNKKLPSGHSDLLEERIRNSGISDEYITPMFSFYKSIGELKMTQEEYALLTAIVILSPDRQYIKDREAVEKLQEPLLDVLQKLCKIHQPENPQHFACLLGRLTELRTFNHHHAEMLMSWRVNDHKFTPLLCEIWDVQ
measurement.kind: EC50

- compound: "O=c1[nH]c(-c2ccc(N3[C@@H]4CC[C@H]3C[C@@H](OCc3c(-c5c(Cl)cccc5Cl)noc3C3CC3)C4)cc2F)no1 [Control 1, reference compound]"
  measurement.kind: "EC50"
  readout.value: "5 to 10 nM"
- compound: "[2H]C([2H])(O[C@H]1C[C@H]2CC[C@@H](C1)N2c1ccc(-c2noc(=O)[nH]2)c(F)c1)c1c(-c2c(Cl)cccc2Cl)noc1C1CC1 [Example 3]"
  measurement.kind: "EC50"
  readout.value: "< 5 nM"
- compound: "[2H]C(O[C@H]1C[C@H]2CC[C@@H](C1)N2c1ccc(-c2noc(=O)[nH]2)c(F)c1)c1c(-c2c(Cl)cccc2Cl)noc1C1CC1 (stereo partly drawn) [Example 4]"
  measurement.kind: "EC50"
  readout.value: "< 5 nM"
